# Test system: Pseudomonas aeruginosa (G-ve) bacteria
# Experiment Description: Zone of inhibition (ZI) paper disc test, antibacterial/antioxidant activity
# Assay type: cell-based
# Study Conditions: premixed 0.01M compound + 0.88M H2O2, 1:1
Value Kind: Zone of inhibition (ZI), 5 uL of (Compound + H2O2)

| Compound | Result |
| --- | --- |
| CCCCCCC1c2cc(c(O)c(O)c2O)C(CCCCCC)c2cc(c(O)c(O)c2O)C(CCCCCC)c2cc(c(O)c(O)c2O)C(CCCCCC)c2cc1c(O)c(O)c2O (centres unmarked) | (2.2 mm) |
| OCCN1CCN(Cc2ccc(O)c3ncccc23)CC1 | (2.2 mm) |
| CC1c2cc(c(O)cc2O)C(C)c2cc(c(O)cc2O)C(C)c2cc(c(O)cc2O)C(C)c2cc1c(O)cc2O (centres unmarked) [RsC1, C-methylresorcin[4]arene] | (2.1 mm) |
| CCCCC1c2cc(c(O)cc2O)C(CCCC)c2cc(c(O)cc2O)C(CCCC)c2cc(c(O)cc2O)C(CCCC)c2cc1c(O)cc2O (centres unmarked) [RsC4, C-butylresorcin[4]arene] | (2.1 mm) |

---

# Test system: Pseudomonas aeruginosa (G-ve) bacteria
# Experiment Description: Zone of inhibition (ZI) paper disc test, antibacterial/antioxidant activity;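 as to Inference: radical scavenger: smaller zone than oxidant alone means antioxidant and larger means oxidant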
# Assay type: cell-based
# Study Conditions: from ZI change with H2O2 / pyrogallol
Value Kind: Inference: radical scavenger

| Molecule | Result |
| --- | --- |
| CCCCCCC1c2cc(c(O)c(O)c2O)C(CCCCCC)c2cc(c(O)c(O)c2O)C(CCCCCC)c2cc(c(O)c(O)c2O)C(CCCCCC)c2cc1c(O)c(O)c2O (stereo not shown) [P6] | Low radical |
| CCCCC1c2cc(c(O)cc2O)C(CCCC)c2cc(c(O)cc2O)C(CCCC)c2cc(c(O)cc2O)C(CCCC)c2cc1c(O)cc2O (stereo not shown) [RsC4, C-butylresorcin[4]arene] | Low radical |

---

# Test system: Pseudomonas aeruginosa (G-ve) bacteria
# Experiment Description: Zone of inhibition (ZI) paper disc test, antibacterial/antioxidant activity
# Format: cell-based
# Study Conditions: premixed 0.01M compound + 1M Pyrogallol, 1:1
Value Kind: Zone of inhibition (ZI), 5 uL of (Compound + Pyrogallol)

| Molecule | Result |
| --- | --- |
| Cc1ccc(=O)n(-c2ccccc2)c1 | pyrogallol (1.2 mm |
| CC1c2cc(c(O)cc2O)C(C)c2cc(c(O)cc2O)C(C)c2cc(c(O)cc2O)C(C)c2cc1c(O)cc2O (centres unmarked) [RsC1, C-methylresorcin[4]arene] | pyrogallol (1.2 mm |
| CCCCCCC1c2cc(c(O)c(O)c2O)C(CCCCCC)c2cc(c(O)c(O)c2O)C(CCCCCC)c2cc(c(O)c(O)c2O)C(CCCCCC)c2cc1c(O)c(O)c2O (centres unmarked) | pyrogallol (1.2 mm |
